biological target: Histamine H2 receptor (Homo sapiens)
Sequence (P25021 whole entry): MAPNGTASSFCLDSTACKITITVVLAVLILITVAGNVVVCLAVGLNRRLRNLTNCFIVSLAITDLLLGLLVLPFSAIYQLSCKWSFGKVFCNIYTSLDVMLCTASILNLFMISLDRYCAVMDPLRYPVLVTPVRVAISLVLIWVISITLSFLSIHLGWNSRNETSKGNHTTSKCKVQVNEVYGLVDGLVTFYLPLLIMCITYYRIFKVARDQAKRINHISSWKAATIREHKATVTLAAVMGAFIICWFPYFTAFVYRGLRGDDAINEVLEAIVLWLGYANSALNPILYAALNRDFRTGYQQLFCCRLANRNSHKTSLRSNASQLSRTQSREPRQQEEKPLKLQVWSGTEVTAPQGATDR
measured-property: pKi
Expect pKi as a plain number equal to -log10 of the molar concentration.

Consider COc1ccccc1N1CCN(CCCCn2ncc(=O)n(C)c2=O)CC1 . Its measured pKi is 5.67
